pIC50: −log10 of the molar value.
Parameter 'readout' = pIC50; parameter 'system' = UniProtKB P15145.
Sequence (P15145 whole entry): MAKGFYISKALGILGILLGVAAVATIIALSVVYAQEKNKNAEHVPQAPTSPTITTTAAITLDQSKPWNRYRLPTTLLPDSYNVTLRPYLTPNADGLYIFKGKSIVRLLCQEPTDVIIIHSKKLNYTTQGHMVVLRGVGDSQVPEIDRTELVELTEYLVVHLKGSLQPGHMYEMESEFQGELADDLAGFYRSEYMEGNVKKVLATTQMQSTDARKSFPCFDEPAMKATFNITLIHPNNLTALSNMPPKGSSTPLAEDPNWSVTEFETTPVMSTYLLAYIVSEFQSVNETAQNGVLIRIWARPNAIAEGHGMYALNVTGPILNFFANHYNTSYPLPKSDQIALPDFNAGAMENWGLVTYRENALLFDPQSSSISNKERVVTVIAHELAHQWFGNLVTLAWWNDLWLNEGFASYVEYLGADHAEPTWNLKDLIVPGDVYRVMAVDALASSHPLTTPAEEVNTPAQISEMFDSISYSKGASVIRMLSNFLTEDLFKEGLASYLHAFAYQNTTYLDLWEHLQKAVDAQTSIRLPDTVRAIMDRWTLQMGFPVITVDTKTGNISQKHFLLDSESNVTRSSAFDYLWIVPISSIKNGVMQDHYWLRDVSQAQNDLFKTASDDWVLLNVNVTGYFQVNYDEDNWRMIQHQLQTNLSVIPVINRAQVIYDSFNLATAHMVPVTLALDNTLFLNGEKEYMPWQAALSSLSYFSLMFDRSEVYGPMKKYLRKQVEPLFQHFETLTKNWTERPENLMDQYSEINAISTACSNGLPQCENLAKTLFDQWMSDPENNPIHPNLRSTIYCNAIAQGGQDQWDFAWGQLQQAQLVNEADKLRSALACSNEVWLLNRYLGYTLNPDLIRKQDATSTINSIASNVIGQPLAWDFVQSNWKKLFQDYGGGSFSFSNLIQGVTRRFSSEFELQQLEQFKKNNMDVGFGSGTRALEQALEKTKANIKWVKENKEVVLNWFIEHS
endpoint: pIC50

compound: CC(C)CC(C(=O)NO)C(=O)NCc1ccc(F)cc1 (stereo unspecified)
target-or-system: UniProtKB P15145
reading-qualifier: =
obs-value: 5.52
//
compound: O=C(NO)C(Cc1ccccc1)C(=O)NCc1ccccc1 (stereo unspecified)
target-or-system: UniProtKB P15145
reading-qualifier: <
obs-value: 5.00
//
compound: CC(C)CC(C(=O)NO)C(=O)NCCCCc1ccccc1 (stereo unspecified)
target-or-system: UniProtKB P15145
reading-qualifier: =
obs-value: 7.09
//
compound: CC(C)CC(C(=O)NO)C(=O)NC1CCc2ccccc2C1 (stereo unspecified)
target-or-system: UniProtKB P15145
reading-qualifier: =
obs-value: 5.52
//
compound: CC(C)CC(C(=O)NO)C(=O)NCc1ccc(Cl)cc1 (stereo unspecified)
target-or-system: UniProtKB P15145
reading-qualifier: =
obs-value: 5.60
//
compound: CC(C)CC(C(=O)NO)C(=O)NCCCc1ccccc1 (stereo unspecified)
target-or-system: UniProtKB P15145
reading-qualifier: =
obs-value: 6.28
